Each entry below lists one item and its recorded TOP value.
Target: T1, human ROR1 on cells (HEK293T-hROR1, PANC-1, A549) (human, UniProt Q01973 30-937)
T1 construct: whole, on cells; one molecule for the three cell lines; also called huROR1; cell surface ROR1
T1 sequence (Q01973 30-937): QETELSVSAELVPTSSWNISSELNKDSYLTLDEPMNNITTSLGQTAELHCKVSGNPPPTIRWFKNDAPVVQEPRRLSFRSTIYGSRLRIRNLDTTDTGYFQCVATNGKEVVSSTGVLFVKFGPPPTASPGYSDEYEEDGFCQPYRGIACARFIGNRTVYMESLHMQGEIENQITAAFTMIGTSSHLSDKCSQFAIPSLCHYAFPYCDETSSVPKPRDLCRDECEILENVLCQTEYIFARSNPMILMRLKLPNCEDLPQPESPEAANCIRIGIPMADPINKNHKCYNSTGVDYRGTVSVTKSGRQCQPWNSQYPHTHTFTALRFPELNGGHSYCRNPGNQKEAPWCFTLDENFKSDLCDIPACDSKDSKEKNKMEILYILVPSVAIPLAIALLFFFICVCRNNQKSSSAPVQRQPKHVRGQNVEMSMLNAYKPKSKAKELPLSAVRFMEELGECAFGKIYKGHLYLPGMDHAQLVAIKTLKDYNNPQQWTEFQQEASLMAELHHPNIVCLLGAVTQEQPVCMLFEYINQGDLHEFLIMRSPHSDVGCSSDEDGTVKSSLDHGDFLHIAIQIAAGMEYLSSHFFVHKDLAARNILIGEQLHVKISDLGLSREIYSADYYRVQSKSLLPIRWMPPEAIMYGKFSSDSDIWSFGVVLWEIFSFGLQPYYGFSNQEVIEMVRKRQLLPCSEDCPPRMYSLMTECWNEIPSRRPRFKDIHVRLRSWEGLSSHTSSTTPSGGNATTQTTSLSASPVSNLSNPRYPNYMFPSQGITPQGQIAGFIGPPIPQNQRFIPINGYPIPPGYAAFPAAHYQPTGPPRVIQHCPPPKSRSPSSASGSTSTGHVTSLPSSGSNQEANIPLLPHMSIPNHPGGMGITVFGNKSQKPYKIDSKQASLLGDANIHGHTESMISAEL
Assay: flow cytometry, PANC-1 cells
Protocol: In brief, anti-ROR1 antibodies were serially diluted in staining buffer (PBS containing 2% FBS). Antibody solution was incubated with 1×10⁵ cells at 4° C. for 1 hour. […] After 1-hour incubation at 4° C., cells were washed twice with staining buffer and subjected to flow cytometry. PR000374 (Bench marker 1) and non-relevant IgG isotype control (Crownbio) were used as positive and negative controls, respectively. […]
The answer should be a number; do not append a unit.

# annotated cases, reported TOP shown
{"BINDER": "PR007414 (antibody, V domains shown, bivalent form (HCAb) variant of PR005340, no light chain) VH: EVQLVESGGGLVKPGGSLRLSCAASGFTFSDFYMSWIRQAPGKGLEWISYISSSGSTRYYADSVKGRFTISRDNAKNSLYLQMNSLRAEDTAIYYCARDMPSSSSDWVDLQFDYWGQGTLVTVSS", "TOP": 88900}
{"BINDER": "PR007421 (antibody, V domains shown, bivalent form (HCAb) variant of PR005340, no light chain) VH: EVQLVESGGGLVKPGGSLRLSCAASGFTFSDFYMSWIRQAPGKGLEWISYIDSSGRPLAYADSVKGRFTISRDNAKNSLYLQMNSLRAEDTAIYYCARDMPSSSSDWVSLQFDYWGQGTLVTVSS", "TOP": 86600}
{"BINDER": "PR007410 (antibody, V domains shown, bivalent form (HCAb) variant of PR005340, no light chain) VH: EVQLVESGGGLVKPGGSLRLSCAASGFTFSDFYMSWIRQAPGKGLEWISYISSSGSYIHYADSVKGRFTISRDNAKNSLYLQMNSLRAEDTAIYYCARDIPSSSSDWVDLQFDYWGQGTLVTVSS", "TOP": 80300}
{"BINDER": "PR007415 (antibody, V domains shown, bivalent form (HCAb) variant of PR005340, no light chain) VH: EVQLVESGGGLVKPGGSLRLSCAASGFTFSDFYMSWIRQAPGKGLEWISYIDSSGRPLAYADSVKGRFTISRDNAKNSLYLQMNSLRAEDTAIYYCARDMPSSSSDWVDLQFDYWGQGTLVTVSS", "TOP": 82800}
{"BINDER": "PR007411 (antibody, V domains shown, bivalent form (HCAb) variant of PR005340, no light chain) VH: EVQLVESGGGLVKPGGSLRLSCAASGFTFSDFYMSWIRQAPGKGLEWISYISSSGSTIHYADSVKGRFTISRDNAKNSLYLQMNSLRAEDTAIYYCARDMPSSSSDWVDLQFDYWGQGTLVTVSS", "TOP": 81400}
{"BINDER": "PR007417 (antibody, V domains shown, bivalent form (HCAb) variant of PR005340, no light chain) VH: EVQLVESGGGLVKPGGSLRLSCAASGFTFSDFYMSWIRQAPGKGLEWISYISSSGSTRYYADSVKGRFTISRDNAKNSLYLQMNSLRAEDTAIYYCARDIPSSSSDWVDLQFDYWGQGTLVTVSS", "TOP": 83800}
{"BINDER": "PR007409 (antibody, V domains shown, bivalent form (HCAb) variant of PR005340, no light chain) VH: EVQLVESGGGLVKPGGSLRLSCAASGFTFSDFYMSWIRQAPGKGLEWISYISSSGSWIHYADSVKGRFTISRDNAKNSLYLQMNSLRAEDTAIYYCARDIPSSSSDWVDLQFDYWGQGTLVTVSS", "TOP": 87400}
{"BINDER": "PR007418 (antibody, V domains shown, bivalent form (HCAb) variant of PR005340, no light chain) VH: EVQLVESGGGLVKPGGSLRLSCAASGFTFSDFYMSWIRQAPGKGLEWISYIDSSGRPLAYADSVKGRFTISRDNAKNSLYLQMNSLRAEDTAIYYCARDIPSSSSDWVDLQFDYWGQGTLVTVSS", "TOP": 81300}
{"BINDER": "PR007420 (antibody, V domains shown, bivalent form (HCAb) variant of PR005340, no light chain) VH: EVQLVESGGGLVKPGGSLRLSCAASGFTFSDFYMSWIRQAPGKGLEWISYISSSGSTRYYADSVKGRFTISRDNAKNSLYLQMNSLRAEDTAIYYCARDMPSSSSDWVSLQFDYWGQGTLVTVSS", "TOP": 79500}
{"BINDER": "PR007408 (antibody, V domains shown, bivalent form (HCAb) variant of PR005340, no light chain) VH: EVQLVESGGGLVKPGGSLRLSCAASGFTFSDFYMSWIRQAPGKGLEWISYISSSGSYIHYADSVKGRFTISRDNAKNSLYLQMNSLRAEDTAIYYCARDMPSSSSDWVDLQFDYWGQGTLVTVSS", "TOP": 87000}

Value lookup for TOP; key = PR005340 (antibody, human IgG1, V domains shown, HCAb (heavy chain-only, human IgG1 Fc), no light chain) VH: EVQLVESGGGLVKPGGSLRLSCAASGFTFSDYYMSWIRQAPGKGLEWISYISSSGSTIHYADSVKGRFTISRDNAKNSLYLQMNSLRAEDTAIYYCARDIPSSSSDWVSLQFDYWGQGTLVTVSS
84900

What value of TOP has been recorded for this entry: PR007423 (antibody, V domains shown, bivalent form (HCAb) variant of PR005340, no light chain) VH: EVQLVESGGGLVKPGGSLRLSCAASGFTFSDYYMSWIRQAPGKGLEWISYIDSSGRPLAYADSVKGRFTISRDNAKNSLYLQMNSLRAEDTAIYYCARDIPSSSSDWVDLQFDYWGQGTLVTVSS
74500
